- targetOrSystem: recombinant human PIM1 (Homo sapiens (Human), UniProt P11309)
- Sequence (P11309 whole entry): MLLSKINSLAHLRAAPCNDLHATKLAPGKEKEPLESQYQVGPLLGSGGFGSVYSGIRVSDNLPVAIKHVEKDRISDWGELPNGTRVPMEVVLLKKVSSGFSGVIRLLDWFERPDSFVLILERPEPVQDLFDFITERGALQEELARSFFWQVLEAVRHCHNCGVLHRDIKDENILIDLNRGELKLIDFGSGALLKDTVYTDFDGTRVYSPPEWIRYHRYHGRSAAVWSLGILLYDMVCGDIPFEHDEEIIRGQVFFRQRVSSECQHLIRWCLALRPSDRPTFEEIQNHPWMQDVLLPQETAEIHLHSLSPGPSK
- protocolDescription: PIM-1 kinase activity in cell-free in vitro assay
- Assay type: biochemical
- runParameters: 500 nM compound, cell-free; read-out: PIM-1: % inh 500 nM
Rule: inhibition at 0.5 µM under 30% gives false, otherwise true.

{"compound": "CNS(=O)(=O)c1cccc(Nc2nc3cc(C(=O)O)ccc3c3sccc23)c1", "classification": "true"}
{"compound": "Brc1cccc(Nc2nc3cc(-c4nnn[nH]4)ccc3c3sccc23)c1", "classification": "true"}
{"compound": "O=C(O)c1ccc2c(c1)nc(Nc1cc(F)cc(F)c1)c1ncncc12", "classification": "true"}
{"compound": "Fc1cc(Nc2nc3cc(-c4nnn[nH]4)ccc3c3cnccc23)ccc1Cl", "classification": "false"}
{"compound": "OCCCOc1nc2cc(-c3nnn[nH]3)ccc2c2ccccc12", "classification": "true"}
{"compound": "NC(=O)c1ccc2c(c1)nc(Nc1ccccc1)c1ccsc12 [drawing 1432]", "classification": "false"}
{"compound": "O=C(O)c1ccc2c(c1)nc(Nc1ccccc1)c1ccsc12", "classification": "false"}
{"compound": "O=C(O)c1ccc2c(c1)nc(NCCCO)c1ccsc12", "classification": "false"}
{"compound": "CC(C)(C)OC(=O)CCNC(=O)c1cccc(Nc2nc3cc(C(=O)O)ccc3c3sccc23)c1", "classification": "false"}
{"compound": "COC(=O)c1ccc2c(c1)nc(Nc1cccc(CC(=O)O)c1)c1ccsc12", "classification": "false"}
{"compound": "O=C(O)c1ccc2c(c1)nc(N1CCCC1)c1ccsc12", "classification": "false"}
{"compound": "Fc1ccc(Nc2nc3cc(-c4nnn[nH]4)ccc3c3sccc23)cc1Cl", "classification": "true"}
{"compound": "Fc1cccc(Nc2nc3cc(-c4nnn[nH]4)ccc3c3sccc23)c1", "classification": "true"}
{"compound": "O=C(O)c1ccc2c(c1)nc(NCCN1CCOCC1)c1ccsc12", "classification": "false"}
{"compound": "O=C(O)CNC(=O)c1cccc(Nc2nc3cc(C(=O)O)ccc3c3sccc23)c1", "classification": "false"}
{"compound": "O=C(O)c1ccc2c(c1)nc(Nc1cc(F)ccc1F)c1ccsc12", "classification": "true"}
{"compound": "O=C(O)c1cc(F)cc(Nc2nc3cc(C(=O)O)ccc3c3sccc23)c1", "classification": "true"}
{"compound": "CN(C)C(=O)c1cccc(Nc2nc3cc(C(=O)O)ccc3c3sccc23)c1", "classification": "false"}
{"compound": "O=C(O)c1ccc2c(c1)nc(Nc1cccc(F)c1)c1ccsc12", "classification": "true"}
{"compound": "COc1cccc(Nc2nc3cc(C(=O)O)ccc3c3cnccc23)c1", "classification": "true"}
{"compound": "Cc1cc(CNC(=O)c2cccc(Nc3nc4cc(C(=O)O)ccc4c4sccc34)c2)no1", "classification": "false"}
{"compound": "O=C(O)c1ccc2c(c1)nc(N1CCOCC1)c1ccsc12 [drawing 1401]", "classification": "true"}
{"compound": "COc1cccc(Nc2nc3cc(-c4nnn[nH]4)ccc3c3sccc23)c1", "classification": "true"}
{"compound": "O=C(O)c1ccc2c(c1)nc(N1CCc3ccccc31)c1ccsc12", "classification": "false"}
{"compound": "CC(C)Oc1cccc(Nc2nc3cc(-c4nnn[nH]4)ccc3c3sccc23)c1", "classification": "true"}
{"compound": "Clc1nc2ccccc2c2sccc12", "classification": "false"}
{"compound": "COc1cc(Nc2nc3cc(-c4nnn[nH]4)ccc3c3sccc23)ccc1F", "classification": "true"}
{"compound": "CNC(=O)Cc1cccc(Nc2nc3cc(C(=O)O)ccc3c3sccc23)c1", "classification": "true"}
{"compound": "O=C(O)c1ccc2c(c1)nc(Nc1cc(F)cc(F)c1)c1ccncc12", "classification": "true"}
{"compound": "O=C(O)c1ccc2c(c1)nc(Nc1cccc(C(=O)NCc3cccnc3)c1)c1ccsc12", "classification": "false"}
{"compound": "O=C(O)c1ccc2c(c1)nc(Nc1ccc(F)c(Cl)c1)c1ccncc12", "classification": "true"}
{"compound": "O=C(O)c1ccc2c(c1)nc(Nc1cc(F)cc(F)c1)c1ccsc12", "classification": "true"}
{"compound": "OCc1cccc(Nc2nc3cc(-c4nnn[nH]4)ccc3c3sccc23)c1", "classification": "true"}
{"compound": "O=C(Cc1cccc(Nc2nc3cc(C(=O)O)ccc3c3sccc23)c1)NC1CC1", "classification": "false"}
{"compound": "O=C(O)c1ccc2c(c1)nc(Nc1cccc(F)c1)c1ccncc12", "classification": "true"}
{"compound": "COc1ccc(Nc2nc3cc(C(=O)O)ccc3c3sccc23)c(OC)c1", "classification": "false"}
{"compound": "O=C(O)c1ccc2c(c1)nc(Nc1ccc(Cl)cc1)c1ccsc12", "classification": "true"}
{"compound": "O=C(O)c1ccc2c(c1)nc(NCCN1CCCC1)c1ccsc12", "classification": "true"}
{"compound": "CCCNC(=O)c1cccc(Nc2nc3cc(C(=O)O)ccc3c3sccc23)c1", "classification": "false"}
{"compound": "O=C(O)c1ccc2c(c1)nc(Nc1ccccc1)c1ccccc12 [drawing 1394]", "classification": "false"}
{"compound": "C#Cc1cccc(Nc2nc3cc(C(=O)O)ccc3c3cnccc23)c1 [drawing 1555]", "classification": "true"}
{"compound": "CN(C)CCNc1nc2cc(C#N)ccc2c2sccc12 [drawing 1429]", "classification": "false"}
{"compound": "COC(=O)c1ccc2c(c1)nc(Nc1cccc(Cl)c1)c1ccncc12", "classification": "false"}

====

- targetOrSystem: recombinant human CK2 (Homo sapiens (Human), UniProt P68400)
- Sequence (P68400 whole entry): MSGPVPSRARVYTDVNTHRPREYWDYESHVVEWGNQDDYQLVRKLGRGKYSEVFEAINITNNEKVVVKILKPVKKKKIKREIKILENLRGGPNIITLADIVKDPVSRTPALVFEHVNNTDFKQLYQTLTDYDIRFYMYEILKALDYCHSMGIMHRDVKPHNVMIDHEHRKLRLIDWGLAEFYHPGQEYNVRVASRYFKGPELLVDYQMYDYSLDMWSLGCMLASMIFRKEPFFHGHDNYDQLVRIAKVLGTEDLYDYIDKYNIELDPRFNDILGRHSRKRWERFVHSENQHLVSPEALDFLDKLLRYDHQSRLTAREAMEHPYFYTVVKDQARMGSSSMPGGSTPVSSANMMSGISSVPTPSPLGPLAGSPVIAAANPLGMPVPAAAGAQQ
- Sequence (P67870 whole entry partner): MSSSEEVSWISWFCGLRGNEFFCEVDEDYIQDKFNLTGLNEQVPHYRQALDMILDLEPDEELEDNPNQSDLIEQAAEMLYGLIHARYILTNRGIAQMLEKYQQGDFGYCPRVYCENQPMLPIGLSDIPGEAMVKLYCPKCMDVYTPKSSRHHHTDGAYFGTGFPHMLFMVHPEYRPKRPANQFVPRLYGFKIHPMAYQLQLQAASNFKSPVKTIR
- protocolDescription: CK2 assay (cell-free, 33P-ATP filter plate)
- Format: biochemical
- runParameters: 500 nM compound, cell-free assay; read-out: CK2: % inh 500 nM

{"molecule": "COC(=O)c1cccc2c1nc(Nc1ccccc1)c1ccncc12 [drawing 2003]", "targetOrSystem": "recombinant human CK2 (Homo sapiens (Human), UniProt P68400)", "inhibition at 0.5 µM, %": -7.87}
{"molecule": "Cc1c(-c2ccccc2)nn(C)c1Nc1nc2cc(C(=O)O)ccc2c2cnccc12", "targetOrSystem": "recombinant human CK2 (Homo sapiens (Human), UniProt P68400)", "inhibition at 0.5 µM, %": 76.2}
{"molecule": "CC(C)c1cccc(Nc2nc3cc(C(=O)O)ccc3c3cnccc23)c1", "targetOrSystem": "recombinant human CK2 (Homo sapiens (Human), UniProt P68400)", "inhibition at 0.5 µM, %": 99.5}
{"molecule": "CCN1CCCC1CNc1nc2cc(-c3nnn[nH]3)ccc2c2ccsc12 (centres unmarked)", "targetOrSystem": "recombinant human CK2 (Homo sapiens (Human), UniProt P68400)", "inhibition at 0.5 µM, %": 1.86}
{"molecule": "CC(C)(C)OC(=O)N1CCN(c2nc3cc(C#N)ccc3c3sccc23)CC1", "targetOrSystem": "recombinant human CK2 (Homo sapiens (Human), UniProt P68400)", "inhibition at 0.5 µM, %": -35}
{"molecule": "N#Cc1ccc2c(c1)nc(NCCn1cccc1)c1ccsc12", "targetOrSystem": "recombinant human CK2 (Homo sapiens (Human), UniProt P68400)", "inhibition at 0.5 µM, %": -22.3}
{"molecule": "O=C(O)c1ccc2c(c1)nc(Nc1ccc(F)c(Cl)c1)c1nccnc12", "targetOrSystem": "recombinant human CK2 (Homo sapiens (Human), UniProt P68400)", "inhibition at 0.5 µM, %": 36.5}
{"molecule": "FC(F)(F)c1cccc(Nc2nc3cc(-c4nnn[nH]4)ccc3c3cscc23)c1", "targetOrSystem": "recombinant human CK2 (Homo sapiens (Human), UniProt P68400)", "inhibition at 0.5 µM, %": 23.1}
{"molecule": "COC(=O)c1ccc2c(c1)nc(NCCOC(C)C)c1ccncc12", "targetOrSystem": "recombinant human CK2 (Homo sapiens (Human), UniProt P68400)", "inhibition at 0.5 µM, %": 15.6}
{"molecule": "FC(F)(F)COc1nc2cc(-c3nnn[nH]3)ccc2c2sccc12", "targetOrSystem": "recombinant human CK2 (Homo sapiens (Human), UniProt P68400)", "inhibition at 0.5 µM, %": 33}
{"molecule": "CN(C)CCNc1nc2cc(-c3nnn[nH]3)ccc2c2ccsc12", "targetOrSystem": "recombinant human CK2 (Homo sapiens (Human), UniProt P68400)", "inhibition at 0.5 µM, %": 24.2}
{"molecule": "CN(C)CCNc1nc2cc(C#N)ccc2c2sc(Br)cc12", "targetOrSystem": "recombinant human CK2 (Homo sapiens (Human), UniProt P68400)", "inhibition at 0.5 µM, %": -7.27}
{"molecule": "CN(c1nc2cc(C#N)ccc2c2sccc12)C(C1CC1)C1CC1", "targetOrSystem": "recombinant human CK2 (Homo sapiens (Human), UniProt P68400)", "inhibition at 0.5 µM, %": -17.1}
{"molecule": "CN1CCCCC1CNc1nc2cc(C(=O)O)ccc2c2cnccc12 (centres unmarked)", "targetOrSystem": "recombinant human CK2 (Homo sapiens (Human), UniProt P68400)", "inhibition at 0.5 µM, %": 103}
{"molecule": "CN1CCN(c2nc3cc(C#N)ccc3c3sccc23)CC1", "targetOrSystem": "recombinant human CK2 (Homo sapiens (Human), UniProt P68400)", "inhibition at 0.5 µM, %": 24.3}
{"molecule": "CCn1c2ccccc2c2cc(Nc3nc4cc(C(=O)O)ccc4c4cnccc34)ccc21", "targetOrSystem": "recombinant human CK2 (Homo sapiens (Human), UniProt P68400)", "inhibition at 0.5 µM, %": 98.1}
{"molecule": "CN(C)c1ncc2c(n1)c(N(C)c1ccccc1)nc1cc(C(=O)O)ccc12", "targetOrSystem": "recombinant human CK2 (Homo sapiens (Human), UniProt P68400)", "inhibition at 0.5 µM, %": 14}
{"molecule": "Cn1nc(C2CC2)cc1Nc1nc2cc(C(=O)O)ccc2c2cnccc12", "targetOrSystem": "recombinant human CK2 (Homo sapiens (Human), UniProt P68400)", "inhibition at 0.5 µM, %": 96.2}
{"molecule": "O=C(O)c1ccc2c(c1)nc(Nc1cccc3ncccc13)c1ccncc12", "targetOrSystem": "recombinant human CK2 (Homo sapiens (Human), UniProt P68400)", "inhibition at 0.5 µM, %": 101}
{"molecule": "OCCN(CCO)CCNc1nc2cc(-c3nnn[nH]3)ccc2c2sccc12", "targetOrSystem": "recombinant human CK2 (Homo sapiens (Human), UniProt P68400)", "inhibition at 0.5 µM, %": 50.7}
{"molecule": "N#Cc1ccc2c(c1)nc(NCCCN)c1ccsc12", "targetOrSystem": "recombinant human CK2 (Homo sapiens (Human), UniProt P68400)", "inhibition at 0.5 µM, %": 61.4}
{"molecule": "CN1CC(Nc2nc3cc(C#N)ccc3c3sccc23)C1", "targetOrSystem": "recombinant human CK2 (Homo sapiens (Human), UniProt P68400)", "inhibition at 0.5 µM, %": 20.6}
{"molecule": "Fc1ccc(Nc2nc3cc(-c4nnn[nH]4)ccc3c3ccsc23)cc1", "targetOrSystem": "recombinant human CK2 (Homo sapiens (Human), UniProt P68400)", "inhibition at 0.5 µM, %": 30.3}

Cited source: patent US8168651B2
